System: HEK-293T
Test: Multiplex assay against HEK293T
Type: toxicity, cell-based
Details: human, 12 h, 1 µM, compound concentration 1 uM, replicate 1
Returns one of Yes or No; Yes when Population Pyknosed Nuclei (%) is >= 10%.

INSERT INTO results (molecule, label) VALUES
  ('COc1ccc2c(c1OCc1ccccc1)C[C@@H](C(=O)O)N(C(=O)C(c1ccccc1)c1ccccc1)C2', 'Yes');

Quick check, Population Pyknosed Nuclei (%) >= 10%? O=c1nc2[nH]c3ccccc3nc-2c(=O)[nH]1
Yes

Quick check, Population Pyknosed Nuclei (%) >= 10%? CN1C[C@H](C(=O)N[C@]2(C)O[C@@]3(O)[C@@H]4CCCN4C(=O)[C@H](Cc4ccccc4)N3C2=O)C[C@@H]2c3cccc4[nH]cc(c34)C[C@H]21.CS(=O)(=O)O [DIHYDROERGOTAMINE MESYLATE]
No

* * *

Assignment: determine reported Population Apoptotic (%) for the given molecules.
System: U2OS
Assay: Multiplex assay against U2OS
Type: toxicity, cell-based
Conditions: human, 12 h, 10 µM, compound concentration 10 uM, replicate 2

// solved cases for Population Apoptotic (%) follow
INSERT INTO results (molecule, measured_parameter, value_reported) VALUES
  ('COc1cc2nc(N3CCN(C(=O)c4ccco4)CC3)nc(N)c2cc1OC.Cl [PRAZOSIN HYDROCHLORIDE]', 'Population Apoptotic (%)', '72%'),
  ('CN1CCN(c2ccc(Nc3c4ccccc4nc4ccccc34)cc2)CC1.Cl.Cl.O', 'Population Apoptotic (%)', '100%'),
  ('CSc1nc(NC2CCCC2)c([N+](=O)[O-])c(NC2CCCC2)n1 [GS-39783]', 'Population Apoptotic (%)', '100%'),
  ('N[C@](CC1c2ccccc2Oc2ccccc21)(C(=O)O)[C@H]1C[C@@H]1C(=O)O', 'Population Apoptotic (%)', '83%');

Hi there! I need Population Apoptotic (%) for each item below, if you can.
1. CC(C)(C)c1ccc(CSc2cnn(C(C)(C)C)c(=O)c2Cl)cc1 [PYRIDABEN]
2. COc1c(Nc2ccc(S(C)(=O)=O)nc2C)ncnc1OC1CCN(C(=O)OC(C)C)CC1 [ADP-597]
3. S=C(NCCCc1c[nH]cn1)NCCCN(Cc1ccc(Cl)c(Cl)c1)c1ccc(Br)cn1
4. Cc1cc(O)c(-c2ccc([C@@H](C)CN(C)C)cc2)c2c1[nH]c(=O)c1sccc12
5. COc1ccc2c(c1OCc1ccccc1)C[C@@H](C(=O)O)N(C(=O)C(c1ccccc1)c1ccccc1)C2 [OLODANRIGAN]

["87%", "85%", "58%", "69%", "81%"]

* * *

Tested on: HEK-293T
Test: Multiplex assay against HEK293T
Type: toxicity, cell-based
Conditions: human, 48 h, 1 µM, compound concentration 1 uM, replicate 2
measured-parameter: Population Tubulin-Different-Phenotype (%)
Enter the number, and then the unit.

// solved cases for Population Tubulin-Different-Phenotype (%) follow
INSERT INTO measurements (test_smiles, value_reported) VALUES
  ('CN(C)C(=O)Cn1cc(-c2ccc(-c3nnc4ccccn34)cc2)cn1', '12%'),
  ('Cn1cc(C(=O)OCC2CCN(CCNS(C)(=O)=O)CC2)c2ccccc21', '11%'),
  ('Cc1sc2c(c1C)C(c1ccc(Cl)cc1)=N[C@H](CC(=O)OC(C)(C)C)c1nnc(C)n1-2', '12%');

Provide one value: measured Population Tubulin-Different-Phenotype (%) of O=c1nc2[nH]c3ccccc3nc-2c(=O)[nH]1
12%
